# STUDY TARGET: human neuropeptide Y5 receptor (Homo sapiens, UniProt Q15761)
# Construct: expressed in transfected cells; host or cells: HEK-293 (human embryonic kidney cells), stably transfected, G-418 selected; membranes
# Sequence (Q15761 whole entry): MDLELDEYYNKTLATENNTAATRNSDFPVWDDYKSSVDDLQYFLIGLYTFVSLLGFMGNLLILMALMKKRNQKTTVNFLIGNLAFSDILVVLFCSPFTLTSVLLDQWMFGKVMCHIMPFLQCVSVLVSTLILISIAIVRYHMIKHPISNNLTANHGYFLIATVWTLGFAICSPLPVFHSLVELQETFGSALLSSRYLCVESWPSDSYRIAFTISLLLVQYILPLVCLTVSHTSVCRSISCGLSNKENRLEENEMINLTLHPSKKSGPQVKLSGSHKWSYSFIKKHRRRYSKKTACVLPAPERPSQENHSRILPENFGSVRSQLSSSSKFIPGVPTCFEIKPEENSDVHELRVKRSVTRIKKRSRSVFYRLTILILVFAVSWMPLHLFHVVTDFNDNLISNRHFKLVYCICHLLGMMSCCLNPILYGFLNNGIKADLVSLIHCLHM
# EXPERIMENT: NPY5 HTS centrifugation assay: competition with 125I-PYY for binding to membranes of NPY5-transfected HEK-293 cells
# EXPERIMENTAL CONTEXT: 3 μM compound; % inhibition of 125I-PYY binding
# % Inh NPY5r 3 μM >= 20% gives rule met, anything below gives rule not met

Look over these answered cases.
                                        mol                              study_target   group_label
0  Cc1cc(C(=O)Nc2ccc3ccccc3c2)nn1-c1cccc(C(F)(F)F)c1  human neuropeptide Y5 receptor (Homo sapiens, UniProt Q15761)      rule met
1  Cc1cc(C(=O)Nc2ccccc2-n2cccc2)nn1-c1ccc(C(F)(F)F)cc1  human neuropeptide Y5 receptor (Homo sapiens, UniProt Q15761)  rule not met
2  Cc1cc(C(=O)Nc2cc(Cl)cc(Cl)c2)nn1-c1cccc(F)c1  human neuropeptide Y5 receptor (Homo sapiens, UniProt Q15761)      rule met
3  Cc1cc(C(=O)Nc2ccc(I)cc2)nn1-c1cccc(C(F)(F)F)c1  human neuropeptide Y5 receptor (Homo sapiens, UniProt Q15761)  rule not met

Attention now turns to another entry.
Data request: Reported % Inh NPY5r 3 μM at or above 20%? `COc1ccc(NC(=O)c2cc(C)n(-c3ccc(C(F)(F)F)cc3)n2)cc1`
Data returned: rule not met

Reference source: patent US6511998B2
